Test system: K4 kissing-loop RNA reporter
test-description: apparent KD of K4 kissing-loop reporter; higher = weaker reporter binding
measurement-setup: Eterna round: R107; input ligand: tryptophan 2.4 mM
Threshold check on apparent KD of K4 kissing-loop reporter: at or above 200 nM gives yes (1), strictly below gives no (0).

Before answering, review these 3 worked examples.
>  <monomer-sequence>
AAGCCAAAGAUUGCUGCGGGUUCCAGAGAUACCAGCCGUAUUGAAGGCCCUUGGCAGCUCGAGUGAUGUUCGAGCCGUCUCUGGC [Lexerati]

>  <test-system>
K4 kissing-loop RNA reporter

>  <answer-label>
no (0)

$$$$
>  <monomer-sequence>
GCUACCUAUGCAGGAUAUGGUAUUACGAGUGAUGUUCGAGGCGAAUAGAGUGAUGUUCUAUUUCCACCAGAAGGGCAUAGGUAGC

>  <test-system>
K4 kissing-loop RNA reporter

>  <answer-label>
no (0)

$$$$
>  <monomer-sequence>
UAUGGCGAGGGCCGCAUAUCAUUAAACCAGAAGGAUAUAUGUUACUAUAGAAGGUCUGCCGCUGCGAGUGAUGUUUGGAGUGAUC [theeternabot_sameState_KL_FMN_A_3]

>  <test-system>
K4 kissing-loop RNA reporter;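 also: bound reporter read as fluorescence of individual clusters on recovered sequencing chips by microscopy, with normalized cluster intensities fitted with a binding model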

>  <answer-label>
yes (1)

$$$$

Prompt: Form field: apparent KD of K4 kissing-loop reporter at least 200 nM? Entry: GUCCAAACACAGUGAUGUUGUGAAUAUGAAGGAGCGGACGAAAGUCCAGGUAGGUCGCAUAAAGGACACCUACGAAAAGUAGGAA [#SwitchBubble 5 #K4Early]
Completion: no (0)

Prompt: Form field: apparent KD of K4 kissing-loop reporter at least 200 nM? Entry: UGUCAUUGGUCGGCCGCCACUUCAUGUAGAGUGAUGUUCUGUAGGACGGAUCGAAAGAUCUGUCGAAGGACCGGGACCGAUGACU [FiskerMod 14 - Jieux - Same State - Tryptophan B]
Completion: yes (1)

Prompt: Form field: apparent KD of K4 kissing-loop reporter at least 200 nM? Entry: AUUUUGGUUUAGAGUGAUGUUCCUUGUAUUCGAGGACCGGUACGGCCGCCACUCGAAUAGAAAAGAAAAGAAAUGAGUGAUGUUU [BDazzled - #4 SS Tryptophan A]
Completion: yes (1)
